Could you please report measured inhibition at 10 µM for the items listed next?
Test system: Wnt activity (Wnt-responsive human Sp5 promoter, TCF/LEF binding sites) in SW480 colon carcinoma cells
Experiment: Wnt activity screening assay: Sp5-Luc luciferase reporter gene in SW480 cells
Type: cell-based
Settings: given for EC50 of >10 μM, 10 μM, read-out: percent inhibition at 10 μM
Method: The screening assay for Wnt activity is described as follows. […] SW480 colon carcinoma cells were transduced with a lentiviral vector expressing luciferase with a human Sp5 promoter consisting of a sequence of eight TCF/LEF binding sites. […] Following incubation, 20 μl of BrightGlo luminescence reagent (Promega) was added to each well of the 384-well assay plates. The plates were placed on an orbital shaker for 2 min and then luminescence was quantified using the Envision (Perkin Elmer) plate reader. […]
Numbers only, in %.

1. NC1CN(c2cncc(-c3ccc4[nH]nc(-c5nc6c(-c7cccc(F)c7)nccc6[nH]5)c4n3)n2)C1    16.3
2. CC(C)(C)CC(=O)Nc1cncc(-c2ccc3[nH]nc(-c4nc5c(-c6ccccc6F)nccc5[nH]4)c3n2)c1    8.1
3. c1cc2[nH]c(-c3n[nH]c4ccc(-c5cn[nH]c5)nc34)nc2cn1    22.3
4. CC(C)C(=O)Nc1cncc(-c2ccc3[nH]nc(-c4nc5c(-c6cccnc6)nccc5[nH]4)c3n2)c1    25.1
5. O=C(Nc1cncc(-c2ccc3[nH]nc(-c4nc5c(-c6cccs6)nccc5[nH]4)c3n2)c1)C1CC1    4.1
6. O=C(Nc1cncc(-c2ccc3[nH]nc(-c4nc5cnccc5[nH]4)c3n2)c1)C1CCCCC1    0

Provide reported inhibition at 10 µM for each item, in the same order as listed.
1. Cc1ccc(-c2nccc3[nH]c(-c4n[nH]c5ccc(C6=CCNCC6)nc45)nc23)s1
2. Cc1cn(-c2nccc3[nH]c(-c4n[nH]c5ccc(-c6cncc(OCCN(C)C)c6)nc45)nc23)cn1

result:
1: 43.4; 2: 11.8

Provide reported inhibition at 10 µM for each item, in the same order as listed.
1. Cn1cc(-c2ccc3[nH]nc(-c4nc5c(N6CCCCC6)nccc5[nH]4)c3n2)c(CO)n1
2. CCCCC(=O)Nc1cncc(-c2ccc3[nH]nc(-c4nc5c(-c6cc(F)cc(NCCN(C)C)c6)nccc5[nH]4)c3n2)c1
3. COc1cccc(-c2nccc3[nH]c(-c4n[nH]c5ccc(-c6cncc(NC(=O)CC(C)(C)C)c6)nc45)nc23)c1
4. O=C(Nc1cncc(-c2ccc3[nH]nc(-c4nc5c(-c6ccsc6)nccc5[nH]4)c3n2)c1)c1ccccc1
5. Nc1cncc(-c2ccc3[nH]nc(-c4nc5c(-c6ccccc6F)nccc5[nH]4)c3n2)c1
6. O=C(Nc1cncc(-c2ccc3[nH]nc(-c4nc5c(-c6ccncc6)nccc5[nH]4)c3n2)c1)C1CCCCC1
7. CC(C)(C)CC(=O)Nc1cncc(-c2ccc3[nH]nc(-c4nc5cnccc5[nH]4)c3n2)c1

result:
49.6
0
16.6
3.3
27.7
2.8
9.5

###

tested on: Wnt activity (Wnt-responsive human Sp5 promoter, TCF/LEF binding sites) in SW480 colon carcinoma cells; test: Wnt activity screening assay: Sp5-Luc luciferase reporter gene in SW480 cells; assay type: cell-based; details: given for EC50 of >10 μM, 10 μM, read-out: percent inhibition at 10 μM
MEASURE: inhibition at 10 µM
# include the unit after the value

Below are worked cases with known answers.
1) O=C(CC1CCNCC1)Nc1cncc(-c2ccc3[nH]nc(-c4nc5c(-c6ccccn6)nccc5[nH]4)c3n2)c1    31.4%
2) CS(=O)(=O)NCc1cc(F)cc(-c2nccc3[nH]c(-c4n[nH]c5ccc(-c6cncc(NC(=O)c7ccccc7)c6)nc45)nc23)c1    0%
3) c1ccc(COc2cncc(-c3ccc4[nH]nc(-c5nc6c(-c7ccncc7)nccc6[nH]5)c4n3)c2)cc1    18.1%
4) Fc1cccc(-c2nccc3[nH]c(-c4n[nH]c5ccc(C6=CCNCC6)nc45)nc23)c1    17.6%
5) CN1CCN(c2nccc3[nH]c(-c4n[nH]c5ccc(-c6cncnc6)nc45)nc23)CC1    17.7%

Provide reported inhibition at 10 µM for each item, in the same order as listed.
1. O=C(Nc1cncc(-c2ccc3[nH]nc(-c4nc5c(-c6cccc(F)c6)nccc5[nH]4)c3n2)c1)C1CC1
2. Cc1cn(-c2nccc3[nH]c(-c4n[nH]c5ccc(-c6cncc(NC(=O)C(C)(C)C)c6)nc45)nc23)cn1
3. CN1CCN(c2nccc3[nH]c(-c4n[nH]c5ccc(-c6cncc(N)c6)nc45)nc23)CC1
4. COc1cccc(-c2nccc3[nH]c(-c4n[nH]c5ccc(-c6cn[nH]c6)nc45)nc23)c1
5. c1cncc(-c2ccc3[nH]nc(-c4nc5cnccc5[nH]4)c3n2)c1
6. CCNCc1cncc(-c2ccc3[nH]nc(-c4nc5c(-c6ccccn6)nccc5[nH]4)c3n2)c1
7. CN1CCN(c2nccc3[nH]c(-c4n[nH]c5ccc(-c6cncc(NC(=O)C7CCCC7)c6)nc45)nc23)CC1

result:
1: 14.7%; 2: 21%; 3: 15.3%; 4: 5.7%; 5: 21.9%; 6: 35.5%; 7: 15%

###

Could you please report measured Emax for the items listed next?
tested on: primary human mesenchymal stem cells (hMSCs); experiment: Induction of chondrogenesis in hMSCs (nodule area, Rhodamine B / Nile Red); assay type: cell-based; conditions: TGF-β3 as positive control, read-out: Max. Activity as % TGF-β3 activity
Numbers only, in %.

1. CCCC(=O)Nc1cncc(-c2ccc3[nH]nc(-c4nc5c(-c6ccsc6)nccc5[nH]4)c3n2)c1    358
2. CCC(=O)Nc1cncc(-c2ccc3[nH]nc(-c4nc5c(-c6cccs6)nccc5[nH]4)c3n2)c1    179
3. CC(C)(C)C(=O)Nc1cncc(-c2ccc3[nH]nc(-c4nc5c(-c6ccc(F)cc6)nccc5[nH]4)c3n2)c1    56
4. CC(C)(C)CC(=O)Nc1cncc(-c2ccc3[nH]nc(-c4nc5cnccc5[nH]4)c3n2)c1    54

Provide reported Emax for each item, in the same order as listed.
1. Fc1ccc(-c2nccc3[nH]c(-c4n[nH]c5ccc(-c6cncnc6)nc45)nc23)cc1
2. COc1cccc(-c2nccc3[nH]c(-c4n[nH]c5ccc(-c6cccnc6)nc45)nc23)c1
3. CC(C)Nc1cncc(-c2ccc3[nH]nc(-c4nc5c(-c6cc(F)cc(NCCN(C)C)c6)nccc5[nH]4)c3n2)c1

result:
[139, 51, 116]

###

test system: primary human mesenchymal stem cells (hMSCs); assay: Induction of chondrogenesis in hMSCs (nodule area, Rhodamine B / Nile Red); format: cell-based; conditions: TGF-β3 as positive control, read-out: Max. Activity as % TGF-β3 activity
Tag: rule met if measured Emax is not below 60%, rule not met if it is.

Would you please look over these solved cases?
1. Oc1cncc(-c2ccc3[nH]nc(-c4nc5c(-c6cccc(F)c6)nccc5[nH]4)c3n2)c1 [Compound 517]    rule not met
2. CC(C)C(=O)Nc1cncc(-c2ccc3[nH]nc(-c4nc5c(N6CCN(C)CC6)nccc5[nH]4)c3n2)c1 [Compound 233]    rule met
3. CCCCC(=O)Nc1cncc(-c2ccc3[nH]nc(-c4nc5c(-c6ccccn6)nccc5[nH]4)c3n2)c1 [Compound 159]    rule met
4. Cc1ccncc1-c1ccc2[nH]nc(-c3nc4c(-c5ccsc5)nccc4[nH]3)c2n1 [Compound 285]    rule not met
5. CCCC(=O)Nc1cncc(-c2ccc3[nH]nc(-c4nc5c(-c6ccncc6)nccc5[nH]4)c3n2)c1 [Compound 129]    rule met
6. Fc1cccc(-c2nccc3[nH]c(-c4n[nH]c5ccc(-c6ccncc6)nc45)nc23)c1 [Compound 18]    rule not met
7. Cc1ccc(-c2nccc3[nH]c(-c4n[nH]c5ccc(-c6cncc(N)c6)nc45)nc23)s1 [Compound 395]    rule met
8. Fc1cccc(-c2nccc3[nH]c(-c4n[nH]c5ccc(C6=CCNCC6)nc45)nc23)c1 [Compound 506]    rule not met
9. CCNCc1cncc(-c2ccc3[nH]nc(-c4nc5c(-c6ccoc6)nccc5[nH]4)c3n2)c1 [Compound 314]    rule not met
10. CCC(=O)Nc1cncc(-c2ccc3[nH]nc(-c4nc5c(N6CCCCC6)nccc5[nH]4)c3n2)c1 [Compound 169]    rule met

query: Determine whether measured Emax meets or exceeds 60% for CC(C)CC(=O)Nc1cncc(-c2ccc3[nH]nc(-c4nc5c(-c6cccc(F)c6)nccc5[nH]4)c3n2)c1 [Compound 2]
result: rule not met

query: Determine whether measured Emax meets or exceeds 60% for CN(C)c1cncc(-c2ccc3[nH]nc(-c4nc5c(N6CCCCC6)nccc5[nH]4)c3n2)c1 [Compound 175]
result: rule not met

query: Determine whether measured Emax meets or exceeds 60% for Fc1cccc(-c2nccc3[nH]c(-c4n[nH]c5ccc(C6CCNCC6)nc45)nc23)c1 [Compound 505]
result: rule not met

query: Determine whether measured Emax meets or exceeds 60% for CC(C)Nc1cncc(-c2ccc3[nH]nc(-c4nc5c(-c6cccnc6)nccc5[nH]4)c3n2)c1 [Compound 96]
result: rule not met

Measured values drawn from patent US10195185B2 for this set.
